System: RAW264.7
Assay: Selectivity index, ratio of IC50 for cytotoxicity against mouse RAW264.7 cells to IC50 for antiinflammatory activity in LPS-induced mouse RAW264.7 cells assessed as inhibition of NO release
reported.endpoint: Ratio IC50

compound	reported.endpoint	data.value
COc1ccc(N2C(=O)[C@H](Oc3ccc(C4C(C#N)=C(N)OC5=C4C(=O)CC(C)(C)C5)cc3)[C@@H]2c2c3ccccc3cc3ccccc23)cc1 (relative stereo)	Ratio IC50	2.4
CCOc1ccc(N2C(=O)[C@H](Oc3ccc(C4C(C#N)=C(N)Oc5c4c(=O)oc4ccccc54)cc3)[C@@H]2c2c3ccccc3cc3ccccc23)cc1 (relative stereo)	Ratio IC50	1.3
CN(C)c1ccc(N2C(=O)[C@H](Oc3ccc(C4C(C#N)=C(N)OC5=C4C(=O)CC(C)(C)C5)cc3)[C@@H]2c2ccc([N+](=O)[O-])cc2)cc1 (relative stereo)	Ratio IC50	4.1
CCOc1ccc(N2C(=O)[C@H](Oc3ccc(C4C(C#N)=C(N)OC5=C4C(=O)CC(C)(C)C5)cc3)[C@@H]2c2ccc([N+](=O)[O-])cc2)cc1 (relative stereo)	Ratio IC50	1.4
COc1ccc(N2C(=O)[C@H](Oc3ccc(C=O)cc3)[C@@H]2c2cccc([N+](=O)[O-])c2)cc1 (relative stereo)	Ratio IC50	1.4
CN(C)c1ccc(N2C(=O)[C@H](Oc3ccc(C4C(C#N)=C(N)Oc5c4c(=O)oc4ccccc54)cc3)[C@@H]2c2ccc([N+](=O)[O-])cc2)cc1 (relative stereo)	Ratio IC50	1
CCOc1ccc(N2C(=O)[C@H](Oc3ccc(C=O)cc3)[C@@H]2c2ccc(Cl)cc2)cc1 (relative stereo)	Ratio IC50	4.9
C[C@@H]1C[C@H]2[C@@H]3CCC4=CC(=O)C=C[C@]4(C)[C@@]3(F)[C@@H](O)C[C@]2(C)[C@@]1(O)C(=O)CO	Ratio IC50	31.9
CCOc1ccc(N2C(=O)[C@H](Oc3ccc(C=O)cc3)[C@@H]2c2ccc(N(C)C)cc2)cc1 (relative stereo)	Ratio IC50	1.9
Cc1ccc(N2C(=O)[C@H](Oc3ccc(C4C(C#N)=C(N)OC5=C4C(=O)CC(C)(C)C5)cc3)[C@@H]2c2ccc(Cl)cc2)cc1 (relative stereo)	Ratio IC50	19.8
CC1(C)CC(=O)C2=C(C1)OC(N)=C(C#N)C2c1ccc(O[C@H]2C(=O)N(c3ccc(Cl)cc3)[C@H]2c2cccc([N+](=O)[O-])c2)cc1 (relative stereo)	Ratio IC50	2.3
COc1ccc(N2C(=O)[C@H](Oc3ccc(C4C(C#N)=C(N)OC5=C4C(=O)CC(C)(C)C5)cc3)[C@@H]2c2cccc([N+](=O)[O-])c2)cc1 (relative stereo)	Ratio IC50	1.1
COc1ccc(N2C(=O)[C@H](Oc3ccc(C=O)cc3)[C@@H]2c2ccc(Cl)cc2)cc1 (relative stereo)	Ratio IC50	1.4
Cc1ccc(N2C(=O)[C@H](Oc3ccc(C=O)cc3)[C@@H]2c2ccc(Cl)cc2)cc1 (relative stereo)	Ratio IC50	53.4
CCOc1ccc(N2C(=O)[C@H](Oc3ccc(C=O)cc3)[C@@H]2c2c3ccccc3cc3ccccc23)cc1 (relative stereo)	Ratio IC50	2.6
COc1ccc(N2C(=O)[C@H](Oc3ccc(C4C(C#N)=C(N)Oc5c4c(=O)oc4ccccc54)cc3)[C@@H]2c2c3ccccc3cc3ccccc23)cc1 (relative stereo)	Ratio IC50	1.2
CCOc1ccc(N2C(=O)[C@H](Oc3ccc(C4C(C#N)=C(N)OC5=C4C(=O)CC(C)(C)C5)cc3)[C@@H]2c2ccc(Cl)cc2)cc1 (relative stereo)	Ratio IC50	2.7
COc1ccc(N2C(=O)[C@H](Oc3ccc(C=O)cc3)[C@@H]2c2c3ccccc3cc3ccccc23)cc1 (relative stereo)	Ratio IC50	1
O=Cc1ccc(O[C@H]2C(=O)N(c3ccc(Cl)cc3)[C@H]2c2cccc([N+](=O)[O-])c2)cc1 (relative stereo)	Ratio IC50	2.1
CCOc1ccc(N2C(=O)[C@H](Oc3ccc(C4C(C#N)=C(N)OC5=C4C(=O)CC(C)(C)C5)cc3)[C@@H]2c2c3ccccc3cc3ccccc23)cc1 (relative stereo)	Ratio IC50	1.6
CN(Cc1cnc2nc(N)nc(N)c2n1)c1ccc(C(=O)N[C@@H](CCC(=O)O)C(=O)O)cc1 [METHOTREXATE]	Ratio IC50	31.9
CCOc1ccc(N2C(=O)[C@H](Oc3ccc(C4C(C#N)=C(N)OC5=C4C(=O)CC(C)(C)C5)cc3)[C@@H]2c2ccc(N(C)C)cc2)cc1 (relative stereo)	Ratio IC50	3.8
CCOc1ccc(N2C(=O)[C@H](Oc3ccc(C=O)cc3)[C@@H]2c2ccc([N+](=O)[O-])cc2)cc1 (relative stereo)	Ratio IC50	1.9
CN(C)c1ccc(N2C(=O)[C@H](Oc3ccc(C=O)cc3)[C@@H]2c2ccc([N+](=O)[O-])cc2)cc1	Ratio IC50	3.6
COc1ccc(N2C(=O)[C@H](Oc3ccc(C4C(C#N)=C(N)Oc5c4c(=O)oc4ccccc54)cc3)[C@@H]2c2ccc(Cl)cc2)cc1 (relative stereo)	Ratio IC50	1.4
